Tested on: arbuscular mycorrhizae fungi
Test: Mycorrhization in soybean roots after seed treatment
Format: in vivo
Conditions: Glycine max; soybean variety Toliman, seed treatment 0.15 mg ai/seed, mycorrhizal inoculant Blend A; relative to control; read-out: [%] arbuscular mycorrhizae fungi colonization vs. control.
Quick rule for you: response vs control in vivo at 0.15 mg/seed under 80% gets fulfilled, anything else gets not fulfilled.

* O=C(N[C@@H]1CO[C@@H]1c1ccc(Cl)cc1Cl)c1cccnc1C(F)(F)F (racemic) [Compound A7] | fulfilled
* O=C(N[C@@H]1CO[C@@H]1c1ccc(Cl)cc1Cl)c1nccnc1C(F)(F)F (racemic) [Compound A6] | not fulfilled

Query: # check: response vs control in vivo at 0.15 mg/seed < 80% for O=C(N[C@H]1CC[C@H]1c1ccc(F)cc1Cl)c1ncccc1C(F)(F)F [Compound A3]
Response: not fulfilled

* * *

Tested on: arbuscular mycorrhizae fungi
Experiment: Mycorrhization in soybean roots after seed treatment
Type: in vivo
Settings: Glycine max; soybean variety Toliman, seed treatment 0.15 mg ai/seed, mycorrhizal inoculant Blend A; relative to control; read-out: [%] arbuscular mycorrhizae fungi colonization vs. control.
For each of the molecules below, state its response vs control in vivo at 0.15 mg/seed.
Please provide the amount together with its unit, number first.

Reference set (2 entries):
* O=C(N[C@@H]1CC[C@@H]1c1ccc(Cl)cc1Cl)c1cccnc1C(F)(F)F (racemic) | 115%
* O=C(N[C@@H]1CO[C@@H]1c1ccc(F)cc1F)c1nccnc1C(F)(F)F (racemic) | 81%

Hey, quick one: what's response vs control in vivo at 0.15 mg/seed for each of these?
1. O=C(N[C@H]1CC[C@H]1c1ccc(F)cc1F)c1nccnc1C(F)(F)F
2. O=C(N[C@H]1CC[C@H]1c1ccc(F)cc1F)c1ncccc1C(F)(F)F

Response:
61%
67%

So the reported response vs control in vivo at 0.15 mg/seed for O=C(N[C@H]1CC[C@H]1c1ccc(F)cc1Cl)c1cccnc1C(F)(F)F , on arbuscular mycorrhizae fungi, turned out to be 72%
